# System: CP269
# EXPERIMENT_SUMMARY: qHTS profiling for inhibitors of Plasmodium falciparum proliferation (AID 504749); also: nearly all actives have a fitted effect of over 60% in size
# RUN_CONDITIONS: P. falciparum in erythrocytes, SYBR Green DNA, 72 h; series mostly up to 28.7 µM
# Method: NIH National Institute of Allergy and Infectious Diseases [NIAID] NIH Chemical Genomics Center [NCGC] […] Because mature erythrocytes lack DNA, only Plasmodium-derived DNA is detected. NCGC Assay Protocol Summary: The SYBR Green viability assay was adapted from a method described previously (Plouffe et al., 2008). […] The following morning, fluorescence intensity at 485(14) nm excitation and 535(25) nm emission wavelengths was measured on an EnVision (Perkin Elmer) plate reader. […]
Inconclusive results are not listed. The source made the active and inactive calls. Calls follow the shape of the dose curve; as a rule, active = well fitted inhibition curve with a large enough effect; inconclusive = small, poorly fitted or top-dose-only effect; inactive = flat fitted curve, though single readings scatter.
Form entry, call: pick from active, inactive

Answered examples (3):
- MOLECULE: "NCCNc1cccc2ccccc12"
  LABEL: "inactive"
- MOLECULE: "COc1cc(C(=S)N2CCOCC2)ccc1O"
  LABEL: "inactive"
- MOLECULE: "CCOC(=O)c1ccc(N)cc1"
  LABEL: "inactive"

Hi team, can someone confirm the assay call for CNCCc1ccccn1 ?
inactive

Tell me the assay call for Cc1cc(C)cc(OCC2CNC(=O)O2)c1 (configuration not stated) please.
inactive

Please state the recorded outcome for this molecule: CCOC(=O)[C@H](CCc1ccccc1)N[C@@H](C)C(=O)N1[C@H](C(=O)O)C[C@H]2CCCC[C@@H]21
inactive

Identify the outcome logged in this assay for the molecule shown: CN1CCN(c2cc3c(cc2F)c(=O)c(C(=O)O)cn3-c2ccc(F)cc2)CC1
inactive

Kindly provide the recorded test outcome for the following molecule: CC(C)Cc1ccc(CC(=O)O)cc1
inactive

In this assay, the call recorded for CCCCC(CC)COC(=O)c1ccc(N(C)C)cc1 (configuration not stated) was what?
inactive

Record request — test call for O=C(Nc1cccc(C2=NCCN2)c1)Nc1cccc(C2=NCCN2)c1
active

Record lookup: outcome of this test for COc1ccc(C(Cl)=C(c2ccc(OC)cc2)c2ccc(OC)cc2)cc1 ?
inactive

What was the test verdict on Nc1ccc(S(=O)(=O)Nc2cnc3ccccc3n2)cc1 ?
inactive

---

# Test system: CP291
# EXPERIMENT_SUMMARY: qHTS profiling for inhibitors of Plasmodium falciparum proliferation (AID 504749); also: nearly all actives have a fitted effect of over 60% in size
# RUN_CONDITIONS: P. falciparum in erythrocytes, SYBR Green DNA, 72 h; series mostly up to 28.7 µM
Records with an inconclusive call do not appear. Activity calls are given as the source filed them. Calls follow the shape of the dose curve; as a rule, active = well fitted inhibition curve with a large enough effect; inconclusive = small, poorly fitted or top-dose-only effect; inactive = flat fitted curve, though single readings scatter.
Form entry, call: pick from active, inactive

- COMPOUND: "CCN(CC)CCNC(=O)COc1ccc(OC)cc1"
  TEST_SYSTEM: "CP291"
  LABEL: "inactive"
- COMPOUND: "CCOC(=O)c1c(N)sc2c1CCN(Cc1ccccc1)C2"
  TEST_SYSTEM: "CP291"
  LABEL: "active"

Would you mind telling me which call this test gave NC(=O)n1c(O)c(C(=O)c2cccs2)c2cc(Cl)ccc21 ?
inactive

Would you mind telling me which call this test gave O=C(CCN1CCN2CCCC2C1)N1c2ccccc2Sc2ccc(Cl)cc21 (stereo not given) ?
inactive

Called result for C#C[C@]1(OC(C)=O)CC[C@H]2[C@@H]3CCC4=C/C(=N/O)CC[C@@H]4[C@H]3CC[C@@]21CC
inactive

Outcome? N#CCC(=O)NN
inactive

Please share the test call associated with CC(=O)OC[C@H]1O[C@@H](n2ncc(=O)[nH]c2=O)[C@H](OC(C)=O)[C@@H]1OC(C)=O .
inactive

Could you kindly confirm the outcome this assay logged for CC(=O)Nc1ncc([N+](=O)[O-])s1 ?
inactive

Any idea what this test logged for CCCCNC(=O)NS(=O)(=O)c1ccc(N)cc1 ?
inactive

---

# System: JEG-3
# EXPERIMENT_SUMMARY: Primary qHTS to identify gynecologic anti-cancer compounds using libraries of approved drugs and bioactive compounds (AID 1345084); also: nearly all actives have a fitted effect of over 55% in size
# RUN_CONDITIONS: Gynecologic cancer cell panel viability, ATPlite luminescence, 48 h; series mostly up to 57.5 µM
Records with an inconclusive call do not appear. Activity calls are given as the source filed them. Calls follow the shape of the dose curve; as a rule, active = well fitted cell-killing curve with a large enough effect; inconclusive = small, poorly fitted or top-dose-only effect, or effect the other way; inactive = flat fitted curve, though single readings scatter.
MEASURED_PARAMETER: activity change, negative = cytotoxicity

The cases that follow already have their activity change, negative = cytotoxicity on record.
- MOLECULE: "C#C[C@]1(O)CC[C@H]2[C@@H]3CCC4=Cc5oncc5C[C@]4(C)[C@H]3CC[C@@]21C"
  TEST_SYSTEM: "JEG-3"
  activity change, negative = cytotoxicity: "inactive"
- MOLECULE: "OC[C@H]1O[C@@H](Oc2ccc(O)cc2)[C@H](O)[C@@H](O)[C@@H]1O"
  TEST_SYSTEM: "JEG-3"
  activity change, negative = cytotoxicity: "inactive"
- MOLECULE: "CC(C)CCCC(C)N (stereo unspecified)"
  TEST_SYSTEM: "JEG-3"
  activity change, negative = cytotoxicity: "inactive"
- MOLECULE: "CC(=O)NO"
  TEST_SYSTEM: "JEG-3"
  activity change, negative = cytotoxicity: "inactive"
- MOLECULE: "COc1cc(C(=S)N2CCOCC2)ccc1O"
  TEST_SYSTEM: "JEG-3"
  activity change, negative = cytotoxicity: "inactive"

Dear colleague, could you please provide activity change, negative = cytotoxicity for the molecules listed below?
1. O=C(Nc1cccc(C2=NCCN2)c1)Nc1cccc(C2=NCCN2)c1
2. Nc1ccc(S(=O)(=O)Nc2cnc3ccccc3n2)cc1
3. CC(C)(C)NC[C@H](O)COc1nsnc1N1CCOCC1
4. Cc1cccc(C)c1NC(=O)CN1CCCC1
5. CC(=O)N[C@@H](CCC(=O)O)C(=O)O
6. CCCCCCCCOc1ccc(C(=O)c2ccccc2)c(O)c1
7. COc1ccc(CN(CCN(C)C)c2ncccn2)cc1

1: inactive; 2: inactive; 3: inactive; 4: inactive; 5: inactive; 6: inactive; 7: inactive

---

# Test system: C2A
# EXPERIMENT_SUMMARY: qHTS profiling for inhibitors of Plasmodium falciparum proliferation (AID 504749); also: nearly all actives have a fitted effect of over 60% in size
# RUN_CONDITIONS: P. falciparum in erythrocytes, SYBR Green DNA, 72 h; series mostly up to 28.7 µM
Results filed as inconclusive are left out. Activity calls are given as the source filed them. Calls follow the shape of the dose curve; as a rule, active = well fitted inhibition curve with a large enough effect; inconclusive = small, poorly fitted or top-dose-only effect; inactive = flat fitted curve, though single readings scatter.
Tick one outcome: active, inactive

Sample answers from the record:
- MOLECULE: "O=C1C(CCS(=O)c2ccccc2)C(=O)N(c2ccccc2)N1c1ccccc1 (configuration not stated)"
  LABEL: "inactive"
- MOLECULE: "CCC(CC)(CC(=O)Nc1cccc(/C=C/c2nc(C3CCC3)cs2)c1)C(=O)O"
  LABEL: "inactive"
- MOLECULE: "COc1cc(C)nc(-n2nc(C)cc2OC)n1"
  LABEL: "inactive"
- MOLECULE: "CCCc1ncc(C[n+]2ccccc2C)c(N)n1"
  LABEL: "inactive"
- MOLECULE: "C=CCN1CCc2nc(N)sc2CC1"
  LABEL: "inactive"

What was the test verdict on NC(=O)n1c(O)c(C(=O)c2cccs2)c2cc(Cl)ccc21 ?
inactive

Called result for CN(CCCN1c2ccccc2CCc2ccccc21)CC(=O)c1ccc(Cl)cc1
inactive

Assay outcome for CN(Cc1ccc(C(C)(C)C)cc1)Cc1cccc2ccccc12 : what was it?
inactive

Hey, what did the test say about CCOC(=O)c1ccc(N)cc1 ?
inactive

Kindly provide the recorded test outcome for the following molecule: CC(=O)Oc1ccc(C)cc1
inactive

Which outcome did this test record for the molecule CN1CCN(CCC(=O)N2c3ccccc3Sc3ccc(C(F)(F)F)cc32)CC1 ?
inactive

Returns: the outcome recorded for O[C@@H](c1cc(C(F)(F)F)nc2c(C(F)(F)F)cccc12)[C@H]1CCCCN1 in this assay.
active

---

# EXPERIMENT_SUMMARY: qHTS of pediatric cancer cell lines to identify multiple opportunities for drug repurposing: Primary screen for U-2 OS cells (AID 1347096);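 also: plate controls were DMSO wells for no effect and bortezomib positive control wells for full effect; nearly all actives have a fitted effect of over 50% in size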
# RUN_CONDITIONS: U-2 OS viability, CellTiter-Glo luminescence, 48 h; series mostly up to 46 µM
Results filed as inconclusive are left out. The source made the active and inactive calls. Calls follow the shape of the dose curve; as a rule, active = well fitted cell-killing curve with a large enough effect; inconclusive = small, poorly fitted or top-dose-only effect; inactive = flat fitted curve, though single readings scatter.
Valid outcomes are listed here; reply with one: Y (active), N (inactive)

Past entries and their recorded results:
- COMPOUND: "CCOC(=O)C(C#N)=C(c1ccccc1)c1ccccc1"
  LABEL: "N"
- COMPOUND: "C=C1c2cccc(O)c2C(O)=C2C(=O)[C@]3(O)C(O)=C(C(N)=O)C(=O)[C@@H](N(C)C)[C@@H]3[C@@H](O)[C@H]12"
  LABEL: "N"

Turning now to a further compound:
Dear colleague, could you share the recorded outcome for CN(Cc1ccc(C(C)(C)C)cc1)Cc1cccc2ccccc12 when you have a moment?
N

---

# System: MKL-1
# EXPERIMENT_SUMMARY: qHTS assay to identify novel small-molecules to repurpose for Merkel cell carcinoma treatment (AID 1296009); also: nearly all actives have a fitted effect of over 60% in size
# RUN_CONDITIONS: MCC and control cell lines, CellTiter-Glo viability, 72 h; series mostly up to 46 µM
Results filed as inconclusive are left out. Activity calls are given as the source filed them. Calls follow the shape of the dose curve; as a rule, active = well fitted inhibition curve with a large enough effect; inconclusive = small, poorly fitted or top-dose-only effect; inactive = flat fitted curve, though single readings scatter.
// classify into 1 (active), -1 (inactive)

See these solved cases before continuing.
- COMPOUND: "NC(=S)N/N=C/c1cccnc1"
  LABEL: -1
- COMPOUND: "NS(=O)(=O)c1ccc(Cl)c(S(N)(=O)=O)c1"
  LABEL: -1
- COMPOUND: "CC(C)[C@@H]1CC[C@@H](C)CC1=O"
  LABEL: -1

Dear all, I need the recorded test outcome for CCN(CC)CCNC(=O)c1cc(Br)c(N)cc1OC , thank you.
-1

Assay result, entry Nc1nc(N)c(-c2ccccc2)s1 — outcome?
-1
